- stated.conditions: in n-octanol, 310.15 K
metric: solubility (mole fraction)

Answered examples (5):
compound.string	metric	value
Nc1ccc(S(=O)(=O)Nc2ccc(Cl)cc2)c(Cl)c1	solubility (mole fraction)	0.00349
Cc1cc(Cl)ccc1NS(=O)(=O)c1ccc(N)cc1	solubility (mole fraction)	0.00675
Nc1ccc(S(=O)(=O)Nc2ccccc2Cl)c(Cl)c1	solubility (mole fraction)	0.000128
Nc1ccc(S(=O)(=O)Nc2ccc(Cl)c(Cl)c2)cc1	solubility (mole fraction)	0.000501
Cc1ccc(Cl)cc1NS(=O)(=O)c1ccc(N)cc1	solubility (mole fraction)	0.00273

[P] Cc1cc(N)ccc1S(=O)(=O)Nc1ccc(Cl)cc1
[Q] Cc1ccc(NS(=O)(=O)c2ccc(N)cc2)c(Cl)c1
[R] Nc1ccc(S(=O)(=O)Nc2ccc(Cl)cc2)cc1
[S] Cc1cc(N)ccc1S(=O)(=O)Nc1ccccc1[N+](=O)[O-]
Rank order required: solubility (mole fraction), descending. // format: requested-order list of labels P, Q, R, S
(P: 0.00465, Q: 0.00221, R: 0.00153, S: 0.000345)

* * *

- stated.conditions: in water, 310.15 K
metric: solubility (mole fraction)

Below: 5 molecules and their reported solubility (mole fraction).
compound.string	value
Cc1ccc(NS(=O)(=O)c2ccc(N)cc2)c(Cl)c1	1.18e-06
Cc1cc(Cl)ccc1NS(=O)(=O)c1ccc(N)cc1	3.08e-06
Nc1ccc(S(=O)(=O)Nc2cc(Cl)ccc2Cl)cc1	1.03e-06
Cc1cc(N)ccc1S(=O)(=O)Nc1ccc(Cl)cc1	1.35e-06
Nc1ccc(S(=O)(=O)Nc2ccccc2Cl)c(Cl)c1	1.55e-07

[A] Nc1ccc(S(=O)(=O)Nc2ccc(Cl)c(Cl)c2)cc1
[B] Cc1cc(N)ccc1S(=O)(=O)Nc1ccccc1Cl
# compare solubility (mole fraction) for A vs B ; return the one with the smaller value Could you answer with the label of the item you picked? B

* * *

- stated.conditions: in n-octanol, 315.15 K
metric: solubility (mole fraction)

A selection of reference data follows.
compound.string	solubility (mole fraction)
Cc1ccc(NS(=O)(=O)c2ccc(N)cc2)cc1Cl	0.000897
Nc1ccc(S(=O)(=O)Nc2ccc(Cl)cc2)c(Cl)c1	0.00391
Nc1ccc(S(=O)(=O)Nc2ccc(Cl)cc2)cc1	0.00167
Cc1cc(N)ccc1S(=O)(=O)Nc1ccccc1Cl	0.000242
Cc1cc(N)ccc1S(=O)(=O)Nc1ccc(Cl)cc1	0.00519

[I] Nc1ccc(S(=O)(=O)Nc2cc(Cl)c(Cl)cc2Cl)cc1
[II] Nc1ccc(S(=O)(=O)Nc2cc(Cl)ccc2Cl)cc1
Name the one with the greater solubility (mole fraction) value, either I or II as given. Give the label under which the chosen entry appears. I
(I: 0.00179, II: 0.00089)

* * *

- stated.conditions: in water, 293.15 K
metric: solubility (mole fraction)

compound.string	solubility (mole fraction)
Nc1ccc(S(=O)(=O)Nc2ccc(Cl)cc2)cc1	9.2e-07
Cc1cc(Cl)ccc1NS(=O)(=O)c1ccc(N)cc1	1.25e-06

[P] Nc1ccc(S(=O)(=O)Nc2ccc(Cl)cc2)c(Cl)c1
[Q] Nc1ccc(S(=O)(=O)Nc2ccc(Cl)c(Cl)c2)cc1
Problem: Given the entries P and Q , determine which has the lower reported solubility (mole fraction). Pick one; state its label. Q

[1] Cc1cc(N)ccc1S(=O)(=O)Nc1ccc(Cl)cc1
[2] Cc1cc(N)ccc1S(=O)(=O)Nc1ccccc1Cl
Identify the entry with the larger solubility (mole fraction). Options: 1 and 2 Refer to your chosen entry by its label in the reply. 1

* * *

- stated.conditions: in n-octanol, 298.15 K
metric: solubility (mole fraction)

Below, each entry is followed by its recorded solubility (mole fraction) result.
compound.string	value
Cc1cc(N)ccc1S(=O)(=O)Nc1ccc(Cl)cc1	0.00356
Nc1ccc(S(=O)(=O)Nc2cc(Cl)ccc2Cl)cc1	0.000412
Cc1ccc(NS(=O)(=O)c2ccc(N)cc2)cc1Cl	0.000552

[a] Cc1ccc(Cl)cc1NS(=O)(=O)c1ccc(N)cc1
[b] Cc1cc(N)ccc1S(=O)(=O)Nc1ccccc1Cl
[c] Nc1ccc(S(=O)(=O)Nc2ccccc2Cl)c(Cl)c1
[d] Nc1ccc(S(=O)(=O)Nc2cc(Cl)c(Cl)cc2Cl)cc1
[e] Nc1ccc(S(=O)(=O)Nc2ccc(Cl)c(Cl)c2)cc1
rank_up(items): orders items by reported solubility (mole fraction) in ascending numerical order. Give the labels in the order specified. c, b, e, d, a

[a] Cc1ccc(NS(=O)(=O)c2ccc(N)cc2)c(Cl)c1
[b] Cc1cc(N)ccc1S(=O)(=O)Nc1ccccc1[N+](=O)[O-]
Kindly compare a with b and tell me which has the lower solubility (mole fraction) figure. Write down the label attached to your selection. b

[a] Nc1ccc(S(=O)(=O)Nc2ccc(Cl)cc2)cc1
[b] Nc1ccc(S(=O)(=O)Nc2ccc(Cl)cc2)c(Cl)c1
Rank a against b by their solubility (mole fraction) values and give the higher one. Refer to your chosen entry by its label in the reply. b

* * *

- stated.conditions: in water, 295.15 K
metric: solubility (mole fraction)

compound.string	solubility (mole fraction)
Cc1ccc(NS(=O)(=O)c2ccc(N)cc2)c(Cl)c1	7.06e-07
Cc1ccc(Cl)cc1NS(=O)(=O)c1ccc(N)cc1	6.16e-07

* * *

- stated.conditions: in n-octanol, 293.15 K
metric: solubility (mole fraction)

compound.string	solubility (mole fraction)
Cc1cc(N)ccc1S(=O)(=O)Nc1ccccc1Cl	8.97e-05
Nc1ccc(S(=O)(=O)Nc2cc(Cl)c(Cl)cc2Cl)cc1	0.00097
Cc1ccc(Cl)cc1NS(=O)(=O)c1ccc(N)cc1	0.00153
Cc1ccc(NS(=O)(=O)c2ccc(N)cc2)c(Cl)c1	0.00133
Cc1cc(Cl)ccc1NS(=O)(=O)c1ccc(N)cc1	0.00426
Cc1cc(N)ccc1S(=O)(=O)Nc1ccc(Cl)cc1	0.00319
Cc1cc(N)ccc1S(=O)(=O)Nc1ccccc1[N+](=O)[O-]	0.000152
Nc1ccc(S(=O)(=O)Nc2ccc(Cl)cc2)c(Cl)c1	0.0021

[I] Nc1ccc(S(=O)(=O)Nc2ccccc2Cl)c(Cl)c1
[II] Cc1ccc(NS(=O)(=O)c2ccc(N)cc2)cc1Cl
Would you let me know which has the greater solubility (mole fraction) value, I or II ? Write the label of whichever entry you select. II
(II: 0.000491, I: 5.85e-05)

* * *

- stated.conditions: in water, 303.15 K
metric: solubility (mole fraction)

[1] Cc1cc(N)ccc1S(=O)(=O)Nc1ccccc1[N+](=O)[O-]
[2] Cc1ccc(NS(=O)(=O)c2ccc(N)cc2)c(Cl)c1
[3] Nc1ccc(S(=O)(=O)Nc2ccc(Cl)c(Cl)c2)cc1
Ordering criterion: solubility (mole fraction); begin with the maximum. Write out the labels following the order that was asked for. 2, 1, 3
(2: 9.36e-07, 1: 5.79e-07, 3: 2.48e-07)

[I] Cc1cc(N)ccc1S(=O)(=O)Nc1ccccc1Cl
[II] Nc1ccc(S(=O)(=O)Nc2ccc(Cl)cc2)c(Cl)c1
Hey, between I and II which has a smaller measured solubility (mole fraction)? // output: label of the selected item I
(I: 1.74e-07, II: 5.62e-07)

* * *

- stated.conditions: in water, 315.15 K
metric: solubility (mole fraction)

Check out these entries, answers already filled in.
compound.string	solubility (mole fraction)
Nc1ccc(S(=O)(=O)Nc2ccccc2Cl)c(Cl)c1	1.75e-07
Cc1cc(N)ccc1S(=O)(=O)Nc1ccccc1[N+](=O)[O-]	9.35e-07
Cc1cc(Cl)ccc1NS(=O)(=O)c1ccc(N)cc1	3.74e-06
Nc1ccc(S(=O)(=O)Nc2cc(Cl)c(Cl)cc2Cl)cc1	3.33e-07
Nc1ccc(S(=O)(=O)Nc2ccc(Cl)cc2)cc1	2.84e-06
Cc1ccc(Cl)cc1NS(=O)(=O)c1ccc(N)cc1	2.12e-06

[1] Nc1ccc(S(=O)(=O)Nc2ccc(Cl)c(Cl)c2)cc1
[2] Cc1cc(N)ccc1S(=O)(=O)Nc1ccccc1Cl
[3] Nc1ccc(S(=O)(=O)Nc2ccc(Cl)cc2)c(Cl)c1
Parameters: sort_field (solubility (mole fraction)), sort_dir (desc). Provide your answer as the labels ordered per the instruction. 3, 1, 2
(3: 8.12e-07, 1: 3.89e-07, 2: 2.32e-07)

[A] Cc1ccc(NS(=O)(=O)c2ccc(N)cc2)cc1Cl
[B] Cc1cc(N)ccc1S(=O)(=O)Nc1ccc(Cl)cc1
Response body: label of entry with the larger solubility (mole fraction); valid values A , B . Record your answer as the label of the chosen record. B
(B: 1.68e-06, A: 2.56e-07)

* * *

- stated.conditions: in water, 310.15 K
metric: solubility (mole fraction)

compound.string	value
Nc1ccc(S(=O)(=O)Nc2ccc(Cl)cc2)c(Cl)c1	6.86e-07
Cc1cc(N)ccc1S(=O)(=O)Nc1ccccc1[N+](=O)[O-]	8.02e-07

[1] Cc1ccc(NS(=O)(=O)c2ccc(N)cc2)cc1Cl
[2] Cc1ccc(Cl)cc1NS(=O)(=O)c1ccc(N)cc1
1 or 2 : whose solubility (mole fraction) is greater? Identify your selection by its label. 2

[a] Nc1ccc(S(=O)(=O)Nc2cc(Cl)c(Cl)cc2Cl)cc1
[b] Nc1ccc(S(=O)(=O)Nc2ccc(Cl)cc2)cc1
Which numeric solubility (mole fraction) is bigger, that of a or that of b ? Lab log: write the label of the selected item as the result. b
